- study-target: LXRβ (Homo sapiens)
- Construct: Co-transfection expression plasmids, comprising full-length LXRα (pCMX-h LXRα or LXRβ (pCMX-hLXRβ))
- Sequence (P55055 1-460): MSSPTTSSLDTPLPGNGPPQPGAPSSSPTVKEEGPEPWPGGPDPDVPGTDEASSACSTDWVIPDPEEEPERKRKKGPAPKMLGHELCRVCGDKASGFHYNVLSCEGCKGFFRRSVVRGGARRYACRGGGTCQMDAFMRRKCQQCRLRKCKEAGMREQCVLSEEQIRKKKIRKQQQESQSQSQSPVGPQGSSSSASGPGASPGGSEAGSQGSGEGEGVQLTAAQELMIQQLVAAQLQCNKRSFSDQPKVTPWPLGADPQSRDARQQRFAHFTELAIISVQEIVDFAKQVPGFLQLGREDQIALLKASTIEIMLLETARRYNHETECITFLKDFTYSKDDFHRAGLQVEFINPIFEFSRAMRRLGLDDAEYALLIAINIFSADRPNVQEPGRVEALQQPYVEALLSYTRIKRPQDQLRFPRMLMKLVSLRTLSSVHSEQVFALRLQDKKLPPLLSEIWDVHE
- Sequence (P19793 1-462 partner): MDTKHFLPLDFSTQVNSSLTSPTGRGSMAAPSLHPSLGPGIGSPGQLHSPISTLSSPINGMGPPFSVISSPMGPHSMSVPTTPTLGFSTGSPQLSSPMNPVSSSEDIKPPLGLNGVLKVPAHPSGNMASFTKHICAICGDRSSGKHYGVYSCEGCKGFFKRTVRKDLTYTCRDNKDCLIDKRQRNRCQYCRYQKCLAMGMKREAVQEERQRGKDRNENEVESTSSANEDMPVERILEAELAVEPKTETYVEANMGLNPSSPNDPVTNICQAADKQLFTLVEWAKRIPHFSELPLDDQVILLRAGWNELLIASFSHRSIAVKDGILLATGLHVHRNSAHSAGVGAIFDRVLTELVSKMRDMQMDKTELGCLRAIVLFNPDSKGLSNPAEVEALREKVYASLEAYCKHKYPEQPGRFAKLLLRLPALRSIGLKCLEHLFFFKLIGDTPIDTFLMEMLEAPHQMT
- assay-overview: LXR/LXRE co-transfection assay (luciferase reporter) in CV-1 cells, LXRβ
- assay-context: CV-1 cells transfected with pCMX-hLXRβ and LXREx1-Tk-Luciferase, 20 hours incubation, read-out: LXRbeta agonism EC50
assay-metric: EC50
Give the number first and the unit second.

Consider the following illustrative entries.
1. Cc1nc(-c2ccc3c(c2)OC(F)(F)O3)c(-c2cc(-c3cc(F)c(CO)c(S(C)(=O)=O)c3)ccc2-c2cc(C(F)(F)C(=O)N(C)C)nn2C)o1 [Example 80] :: 0.131 µM
2. Cc1nc(-c2ccc3c(c2)OC(F)(F)O3)c(-c2cc(-c3cccc(S(C)(=O)=O)c3)ccc2-c2cc(C(C)OC(N)=O)nn2C)o1 (stereo not drawn) [Example 129] :: 0.087 µM
3. Cc1nc(-c2ccc3c(c2)OC(F)(F)O3)c(-c2cc(-c3cc(F)c(CO)c(S(C)(=O)=O)c3)ccc2-c2cc(CC(N)=O)nn2C)o1 [Example 61] :: 0.592 µM
4. Cc1nc(-c2ccc3c(c2)OC(F)(F)O3)c(-c2cc(-c3cc(F)c(CO)c(S(C)(=O)=O)c3)ccc2-c2cc(C(C)(C)O)nn2C)o1 [Example 92] :: 0.105 µM
5. Cc1nc(-c2ccc(OC(F)(F)F)cc2)c(-c2cc(-c3cc(F)cc(S(C)(=O)=O)c3)ccc2-n2ccc(C(F)(F)F)n2)o1 [Example 334] :: 0.305 µM

Okay, now this compound:
EC50 measured on Cc1nc(-c2ccc(OC(F)(F)F)cc2)c(-c2cc(-c3ccc(CO)c(S(C)(=O)=O)c3)ccc2-n2ccc(C(C)(C)C#N)n2)o1 [Example 378] = 0.015 µM
